# Tested on: 186277-243-T-J2-PDC complex spheroids, viability;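 further: spheroids exposed to compounds for 7 days before viability read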
# Experiment Summary: Anticancer human tumor 186277-243-T-J2-PDC patient-derived colon adenocarcinoma cell line growth inhibition [RAS]
# Run Conditions: second compound 0.3 µM; first compound 0.000949 µM; hits give low values
Below, each entry is listed with its recorded viability, T/C.

Molecule | Measurement Target | viability, T/C (%)
CC1(C)CCC(Nc2ncc(C(F)(F)F)c(-c3c[nH]c4c(P(C)(C)=O)c(C#N)ccc34)n2)CN1 (centres undefined) + CCn1c(-c2cccnc2C(C)OC)c2c3cc(ccc31)N1CCOC(CC(NC(=O)C(C(C)C)N(C)C(=O)C3(F)CCN(C(=O)C#CC(C)(C)N(C)C)CC3)C(=O)N3CCCC(N3)C(=O)OCC(C)(C)C2)C1 | 186277-243-T-J2-PDC complex spheroids, viability | 102
CC1(C)CCC(Nc2ncc(C(F)(F)F)c(-c3c[nH]c4c(P(C)(C)=O)c(C#N)ccc34)n2)CN1 (centres undefined) + CCn1c(-c2cc(N3CCN(C)CC3)cnc2C(C)OC)c2c3cc(ccc31)-c1csc(n1)CC(NC(=O)C1CC1C)C(=O)N1CCCC(N1)C(=O)OCC(C)(C)C2 | 186277-243-T-J2-PDC complex spheroids, viability | 5.71
CCc1c2c(nc3ccc(O)cc13)-c1cc3c(c(=O)n1C2)COC(=O)[C@]3(O)CC + CCn1c(-c2cccnc2C(C)OC)c2c3cc(ccc31)N1CCOC(CC(NC(=O)C(C(C)C)N(C)C(=O)C3(F)CCN(C(=O)C#CC(C)(C)N(C)C)CC3)C(=O)N3CCCC(N3)C(=O)OCC(C)(C)C2)C1 | 186277-243-T-J2-PDC complex spheroids, viability | 69.7
CCc1c2c(nc3ccc(O)cc13)-c1cc3c(c(=O)n1C2)COC(=O)[C@]3(O)CC + CCn1c(-c2cc(N3CCN(C)CC3)cnc2C(C)OC)c2c3cc(ccc31)-c1csc(n1)CC(NC(=O)C1CC1C)C(=O)N1CCCC(N1)C(=O)OCC(C)(C)C2 | 186277-243-T-J2-PDC complex spheroids, viability | 4.39
